From: patent US6720346B2

Target: CDK2/cyclin A (Homo sapiens)
Construct: made in house; host or cells: CDK2: insect cells (baculovirus); cyclin A: E. coli
Assay: Inhibition of CDK2/cyclin A retinoblastoma kinase activity (Ki; % inhibition)
Format: biochemical
Details: 0.03 μM compound
Procedure: Cyclin-dependent kinase activity was measured by quantifying the enzyme-catalyzed, time-dependent incorporation of radioactive phosphate from [^32P]ATP or [^33P]ATP into a protein substrate. […] The phosphorylated substrate was then captured on a nitrocellulose or phosphocellulose membrane using a 96-well filtration manifold, and unincorporated radioactivity was removed by repeated washing with 0.85% phosphoric acid. Radioactivity was quantified by exposing the dried membranes to a phosphorimager. […]
READOUT_LABEL: CDK2 % Inhibition at 0.03 μM (%)

Some solved cases for reference:
* Nc1nc(Nc2ccc(C(=O)NCCC3=CCCCC3)cc2)sc1C(=O)c1c(F)cccc1F | 7
* Cc1ccc([C@H](C)NC(=O)c2ccc(Nc3nc(N)c(C(=O)c4c(F)cccc4F)s3)cc2)cc1 | 36
* N#CCCN(Cc1ccccc1)C(=O)c1ccc(Nc2nc(N)c(C(=O)c3c(F)cccc3F)s2)cc1 | 0
* CCCc1ccc(NC(=O)c2ccc(Nc3nc(N)c(C(=O)c4c(F)cccc4F)s3)cc2)cc1 | 6

1. Cc1ccc(CNC(=O)c2ccc(Nc3nc(N)c(C(=O)c4c(F)cccc4F)s3)cc2)cc1C
2. CC(C)c1cccc(NC(=O)c2ccc(Nc3nc(N)c(C(=O)c4c(F)cccc4F)s3)cc2)c1
Request: Field: lower recorded CDK2 % Inhibition at 0.03 μM (choose 1 or 2 ) Respond using the label that marks the chosen record.
Result: 2
